# System: SW-620 colon
# Protocol Description: NCI tumour cell line growth inhibition, 48 h; in the data active means GI50 below about 0.43 µM; inactive means the rest
Classes used: 1 (active), -1 (inactive)

>  <Structure Smiles String>
O=C(Cc1ccc(/C=C/C(=O)c2ncc[nH]2)cc1)Nc1ccc(F)cc1

>  <Discrete Label>
-1

$$$$
>  <Structure Smiles String>
COc1ccc2c(c1)/C(=C\c1c(-c3cc(OC)ccc3OC)nc3sc(C)cn13)C(=O)N2C

>  <Discrete Label>
-1

$$$$
>  <Structure Smiles String>
O=C(Oc1cccc2cccnc12)c1cc2c(cc1Cl)SC(N(c1ccc(F)cc1)S(=O)(=O)c1ccc(Br)s1)=NS2(=O)=O

>  <Discrete Label>
-1

$$$$
>  <Structure Smiles String>
CCOC(=O)c1ccc(NC(=O)Nc2nncs2)cc1

>  <Discrete Label>
1

$$$$
>  <Structure Smiles String>
O=c1[nH]c2ccccc2c2ccccc12

>  <Discrete Label>
-1

$$$$
>  <Structure Smiles String>
CCN1C/C(=C\c2cc(OC)c(OC)cc2OC)C(=O)/C(=C/c2cc(OC)c(OC)cc2OC)C1

>  <Discrete Label>
-1

$$$$

###

# Tested on: SF-295 CNS
# Protocol Description: NCI tumour cell line growth inhibition, 48 h

>  <Compound>
Nc1ccc2c(O)cc(=O)[nH]c2n1

>  <TGI>
> 100 µM

$$$$
>  <Compound>
COc1cc(Nc2nc3cc(N)cc(N)c3nc2-c2ccccc2)cc(OC)c1OC

>  <TGI>
42.8 µM

$$$$
>  <Compound>
O=c1[nH]c2ccccc2c2ccccc12

>  <TGI>
> 100 µM

$$$$
>  <Compound>
COc1cc2oc(=O)ccc2cc1C(=O)CC(C)C

>  <TGI>
> 100 µM

$$$$
>  <Compound>
O=c1ccn(CC2(CO)CCC2)c(=O)[nH]1

>  <TGI>
> 100 µM

$$$$
>  <Compound>
COc1ccc(N=NC(=O)NC(Cc2ccccc2)C(=O)O)cc1 (configuration not stated)

>  <TGI>
> 100 µM

$$$$
>  <Compound>
COC(=O)CC(NC(=O)OCc1ccccc1)C(C(C)=O)C(=O)OCc1ccccc1 (configuration not stated)

>  <TGI>
> 100 µM

$$$$
>  <Compound>
O=c1cc(N=Nc2ccc(Br)cc2)[nH]c(=S)[nH]1

>  <TGI>
> 100 µM

$$$$
>  <Compound>
O=C1C[C@H](c2ccccc2)O[C@@H](c2ccccc2)C1

>  <TGI>
> 100 µM

$$$$
>  <Compound>
CN1C(=O)CCC1(O)C1C=CC=CC1 (configuration not stated)

>  <TGI>
> 100 µM

$$$$
>  <Compound>
c1ccc(-c2nnn3c2NC2=C(CCCC2)C3c2ccccc2)cc1 (configuration not stated)

>  <TGI>
49.7 µM

$$$$
>  <Compound>
CCc1n[nH]c(=O)n1/N=C/c1ccccc1O

>  <TGI>
> 100 µM

$$$$
>  <Compound>
Cc1ccn2c(=O)cc(CN3CCOCC3)nc2c1

>  <TGI>
> 100 µM

$$$$
>  <Compound>
O=C1NC(=O)C(F)(n2cc(F)c(=O)[nH]c2=O)C(O)N1 (configuration not stated)

>  <TGI>
> 10 µM

$$$$
>  <Compound>
COc1ccc2nc3c(C(=O)NCCN(C)C)cccc3cc2c1

>  <TGI>
6.2 µM

$$$$
>  <Compound>
COc1ccc(NC(=O)C(=O)c2c(O)c3ccc(O)cc3oc2=O)c([N+](=O)[O-])c1

>  <TGI>
> 100 µM

$$$$
>  <Compound>
COc1nc2[nH]ccc2c(=O)[nH]1

>  <TGI>
> 100 µM

$$$$
>  <Compound>
CCN1C/C(=C\c2cc(OC)c(OC)cc2OC)C(=O)/C(=C/c2cc(OC)c(OC)cc2OC)C1

>  <TGI>
4.89 µM

$$$$
>  <Compound>
c1ccc2sc(SCCSc3nc4ccccc4s3)nc2c1

>  <TGI>
> 100 µM

$$$$
>  <Compound>
CCN(Cc1ccc(C)cc1)c1ccc(CO)c(Cl)c1

>  <TGI>
15.8 µM

$$$$
>  <Compound>
Cn1c2c(c3ccccc31)CCN(CCCCN1CCCCC1)C2=O

>  <TGI>
> 100 µM

$$$$
>  <Compound>
CC(C)(Br)C(=O)N1CCN(C(c2ccccc2)c2ccccc2)CC1

>  <TGI>
> 100 µM

$$$$
>  <Compound>
COc1ccc(N=Nc2c(C)c(C#N)c(=S)n(C3OC(CO)C(O)C(O)C3O)c2-c2ccccc2)cc1 (configuration not stated)

>  <TGI>
98.5 µM

$$$$
>  <Compound>
Cc1cc(NCCCCCCCCNc2cc(C)nc3cc(N)ccc23)c2ccc(N)cc2n1

>  <TGI>
42 µM

$$$$
>  <Compound>
Cn1c(=O)[nH]c2nncnc2c1=O

>  <TGI>
325 µM

$$$$
>  <Compound>
C/C(=C1/N=C(c2cc([N+](=O)[O-])ccc2Cl)N(c2cccc(C)c2)C1=O)c1cc2ccccc2oc1=O

>  <TGI>
> 100 µM

$$$$
>  <Compound>
C=CCN(c1cc(OCc2ccccc2)c2[nH]cc(C)c2c1)S(C)(=O)=O

>  <TGI>
> 100 µM

$$$$
>  <Compound>
NS(=O)(=O)c1ccc(Nc2cc(-c3cccc(O)c3)[nH]n2)cc1

>  <TGI>
> 25 µM

$$$$
>  <Compound>
N=C1OC(CN2CCN(c3ccccc3)CC2)CN1C(=S)Nc1ccccc1 (configuration not stated)

>  <TGI>
> 100 µM

$$$$
>  <Compound>
COc1ccc(C2NC(=S)Nc3c2c(=O)oc2c3ccc3ccccc32)cc1 (configuration not stated)

>  <TGI>
> 100 µM

$$$$
>  <Compound>
CC(C)(C)OC(=O)NC(CCCCNC(=O)OCc1ccccc1)C(=O)NCCNc1ccc(NCCNC(=O)C(CCCCNC(=O)OCc2ccccc2)NC(=O)OC(C)(C)C)c2c1C(=O)c1ccccc1C2=O (configuration not stated)

>  <TGI>
> 100 µM

$$$$
>  <Compound>
OC(c1ccc(F)cc1)C(F)(F)c1nc2ccccc2o1 (configuration not stated)

>  <TGI>
> 100 µM

$$$$
>  <Compound>
CC1=CC(=O)C2=C(C)CCC3C(C)C(=O)OC3C12 (configuration not stated)

>  <TGI>
> 100 µM

$$$$
>  <Compound>
N#CCCN(c1ccc(C=Nc2ccccc2)cc1)S(=O)(=O)c1ccccc1

>  <TGI>
> 100 µM

$$$$
>  <Compound>
CC(=O)O[C@H]1C(=O)[C@@]2(C)[C@H]([C@H](OC(=O)c3cccc([N+](=O)[O-])c3)[C@]3(O)C[C@H](OC(=O)[C@H](O)[C@@H](NC(=O)c4ccccc4)c4ccccc4)C(C)=C1C3(C)C)[C@]1(OC(C)=O)CO[C@@H]1C[C@@H]2O

>  <TGI>
0.15 µM

$$$$
>  <Compound>
CCOC(=O)c1ccc(NC(=O)Nc2nncs2)cc1

>  <TGI>
0.988 µM

$$$$
>  <Compound>
CC(=O)c1ccc2c(c1)c1cc(C(C)=O)ccc1n2CCNC(C)C

>  <TGI>
2.62 µM

$$$$
>  <Compound>
CCSCC1CC(O)(c2ccccc2)CC(c2ccc(F)cc2)O1 (configuration not stated)

>  <TGI>
3.92 µM

$$$$
>  <Compound>
COc1cc(C2Cc3ncccc3-c3[nH]c(=O)c4cccnc4c32)cc(OC)c1OC (configuration not stated)

>  <TGI>
> 100 µM

$$$$
>  <Compound>
COc1ccc(N=N/C(=N/NC(=O)c2ccc(C)cc2)c2ccc(N(CCC#N)CCC#N)cc2OC)cc1

>  <TGI>
> 100 µM

$$$$
>  <Compound>
COc1ccc(/C=C/C(=O)c2cc(OC)c(OC)c(OC)c2)cc1OCC(=O)Nc1nc2ccc(OC(F)(F)F)cc2s1

>  <TGI>
6.09 µM

$$$$
>  <Compound>
CC(=O)OC1CC[C@@]2(C)C(=CC[C@@H]3[C@@H]2CC[C@]2(C)Nc4nn(S(C)(=O)=O)cc4C[C@@H]32)C1 (some centres not stated)

>  <TGI>
> 100 µM

$$$$

###

# Tested on: HCT-15 colon
# Protocol Description: NCI tumour cell line growth inhibition, 48 h

>  <Compound>
O=c1c2c(=NCCN3CCCC3)cc3c(=O)n(CCCN4CCOCC4)c(=O)c4c(-c5ccc(CN6CCCC6)cc5)cc(c(O)n1CCCN1CCOCC1)c2c4-3

>  <TGI>
1.11 µM

$$$$
>  <Compound>
CC(C)=CCC[C@@H](C)/C=C/C=C(\C)C(=O)CC[C@@H]1CC[N@+]2(C)CCCC[C@H]12

>  <TGI>
> 100 µM

$$$$
>  <Compound>
Clc1ccccc1/C=c1\nc(-c2ccccc2)n2c1nc1ccccc12

>  <TGI>
> 100 µM

$$$$
>  <Compound>
CN1c2ccccc2N(C(=O)c2ccc([N+](=O)[O-])cc2)C(CC(=O)O)c2cccn21 (centres undefined)

>  <TGI>
> 100 µM

$$$$
